Listing of entries alongside the reported inhibition at 1 µM.
target: panel of 255 wild-type kinases (Homo sapiens, UniProt Q9H4B4); assay: Kinase panel profiling at 1 µmol/L (MSA or IMAP), percentage inhibition; type: biochemical; conditions: kinase PLK3; 1 µmol/L single concentration; read-out: %-inhibition at 1 µmol/L, PLK3
Sequence (Q9H4B4 whole entry): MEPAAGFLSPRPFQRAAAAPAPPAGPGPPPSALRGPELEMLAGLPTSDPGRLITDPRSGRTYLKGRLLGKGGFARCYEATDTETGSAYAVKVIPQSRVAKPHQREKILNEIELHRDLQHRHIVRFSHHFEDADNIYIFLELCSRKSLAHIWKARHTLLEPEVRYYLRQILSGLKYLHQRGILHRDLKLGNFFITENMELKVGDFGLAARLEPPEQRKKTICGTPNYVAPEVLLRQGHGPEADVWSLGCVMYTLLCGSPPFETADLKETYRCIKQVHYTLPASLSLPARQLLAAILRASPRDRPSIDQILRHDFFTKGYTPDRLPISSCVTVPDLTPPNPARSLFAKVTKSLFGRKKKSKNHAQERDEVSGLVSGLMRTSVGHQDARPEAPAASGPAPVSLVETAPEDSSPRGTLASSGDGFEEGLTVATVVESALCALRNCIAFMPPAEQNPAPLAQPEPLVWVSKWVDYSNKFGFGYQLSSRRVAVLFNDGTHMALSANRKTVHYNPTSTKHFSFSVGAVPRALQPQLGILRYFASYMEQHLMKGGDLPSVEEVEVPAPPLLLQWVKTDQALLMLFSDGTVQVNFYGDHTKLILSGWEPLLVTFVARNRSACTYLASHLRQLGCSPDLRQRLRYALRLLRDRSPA
Note: unit % is implicit; provide only the numeric part.

Example entries and their recorded answers appear below.
>  <structure_as_smiles>
CCN1CCN(c2ccc(Nc3cc(N(C)C(=O)Nc4c(Cl)c(OC)cc(OC)c4Cl)ncn3)cc2)CC1

>  <inhibition at 1 µM [%]>
-0.24

$$$$
>  <structure_as_smiles>
CN1CCN(c2ccc(C(=O)Nc3n[nH]c4ccc(Cc5cc(F)cc(F)c5)cc34)c(NC3CCOCC3)c2)CC1

>  <inhibition at 1 µM [%]>
4.71

$$$$
>  <structure_as_smiles>
Cn1cc(-c2cc3c(N4CCN(c5ncc([C@@](C)(N)c6ccc(F)cc6)cn5)CC4)ncnn3c2)cn1

>  <inhibition at 1 µM [%]>
5.69

$$$$
>  <structure_as_smiles>
Cn1cnc2c(F)c(Nc3ccc(Br)cc3Cl)c(C(=O)NOCCO)cc21

>  <inhibition at 1 µM [%]>
0.774

$$$$
>  <structure_as_smiles>
COc1cc2ncnc(Nc3ccc(F)c(Cl)c3)c2cc1NC(=O)/C=C/CN1CCCCC1

>  <inhibition at 1 µM [%]>
3.6

$$$$
>  <structure_as_smiles>
CO[C@]1(C(=O)N[C@@H](C)c2ccc(-n3cc(F)cn3)nc2)CC[C@H](c2nc(C)cc(Nc3cc(C)[nH]n3)n2)CC1

>  <inhibition at 1 µM [%]>
-0.12

$$$$
>  <structure_as_smiles>
COC(=O)N[C@@H](C)CNc1nccc(-c2cn(C(C)C)nc2-c2cc(Cl)cc(NS(C)(=O)=O)c2F)n1

>  <inhibition at 1 µM [%]>
0.929

$$$$
>  <structure_as_smiles>
CCc1nc(C(N)=O)c(Nc2ccc(N3CCC(N4CCN(C)CC4)CC3)c(OC)c2)nc1NC1CCOCC1

>  <inhibition at 1 µM [%]>
2.59

$$$$
>  <structure_as_smiles>
FC(F)(F)c1ccc(CNc2ccc(Cc3c[nH]c4ncc(Cl)cc34)cn2)cn1

>  <inhibition at 1 µM [%]>
12

$$$$
>  <structure_as_smiles>
Cc1cc(Nc2ncnc3ccc(NC4=NC(C)(C)CO4)cc23)ccc1Oc1ccn2ncnc2c1

>  <inhibition at 1 µM [%]>
1.59

$$$$

QUERY: Under panel of 255 wild-type kinases (Homo sapiens, UniProt Q9H4B4): inhibition at 1 µM value of "Cc1nc(NC(=O)N2CCC[C@H]2C(N)=O)sc1-c1ccnc(C(C)(C)C(F)(F)F)c1" ?
RESULT: 1.89

---

system: 134 cancer cell lines; assay: Cell viability assay (ATPlite, 72 hours), IC50 on cancer cell line panel; conditions: Homo sapiens, Kasumi 1, read-out: IC50 in cell proliferation assay
experimental_endpoint: IC50

QUERY: What value of measured IC50 is listed for "CO[C@@H]1[C@H](N(C)C(=O)c2ccccc2)C[C@H]2O[C@]1(C)n1c3ccccc3c3c4c(c5c6ccccc6n2c5c31)C(=O)NC4" ?
RESULT: 0.32 µM

QUERY: Continue with "CC#CC(=O)N1CCC[C@H]1c1nc(-c2ccc(C(=O)Nc3ccccn3)cc2)c2c(N)nccn12"
RESULT: > 31.6 µM

QUERY: Continue with "COc1cc(N2CCC(N3CCN(C)CC3)CC2)ccc1Nc1ncc(Cl)c(Nc2ccccc2P(C)(C)=O)n1"
RESULT: 0.207 µM

QUERY: Continue with "CCN1C(=O)N(c2c(F)c(OC)cc(OC)c2F)Cc2cnc3[nH]c(CN4CCOCC4)cc3c21"
RESULT: 1.29 µM

QUERY: Continue with "C=CC(=O)N1CCC([C@@H]2CCNc3c(C(N)=O)c(-c4ccc(Oc5ccccc5)cc4)nn32)CC1"
RESULT: 3.36 µM

All values here come from paper PMC9516332.
